subject-of-test: human receptor OR11G2 (Homo sapiens)
Construct: The receptors were tagged with a FLAG®-Rho tag combination; expressed in transfected cells
Sequence (Q8NGC1 35-345 limits assumed): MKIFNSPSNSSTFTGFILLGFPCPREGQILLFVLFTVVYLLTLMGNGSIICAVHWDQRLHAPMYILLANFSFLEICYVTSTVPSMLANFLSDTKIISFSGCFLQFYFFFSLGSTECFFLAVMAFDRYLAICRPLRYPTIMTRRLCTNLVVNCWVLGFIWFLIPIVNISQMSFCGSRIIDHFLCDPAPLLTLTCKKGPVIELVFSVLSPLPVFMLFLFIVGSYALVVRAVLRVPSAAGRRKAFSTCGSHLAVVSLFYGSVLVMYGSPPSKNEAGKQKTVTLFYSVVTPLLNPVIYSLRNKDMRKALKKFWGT
protocol-notes: cell-based dose-response, Ca2+ increase (Calcium 5 dye, FLIPR), HEK293T line stably expressing FLAG-Rho tagged receptor with human Gα15
setup-conditions: FIG. 3, Example 3, SEQ ID NO: 36, stable HEK293T
value-type: pEC50
Please keep in mind that pEC50 is minus log10 of the molar concentration; only the number is needed.

# input Using the record for CSSSC [DMTS, dimethyl trisulfide] , report its pEC50.
# output 4.92
